These measurements were taken from patent US9708268B2.

Assay: TH17 cell viability (Prestoblue)
Type: cell-based
Set-up: concentration or dose not given beside the values
Settings: human; percentage of DMSO treated cells; read-out: % viability of compound treated TH17 cells
Measured Parameter: viability

NC(=O)c1ccc2c(c1)CCCN2Cc1ccc(C(O)(C(F)(F)F)C(F)(F)F)cc1 : > 80%
NC(=O)c1ccc2c(c1)CCN2Cc1ccc(C(O)(C(F)(F)F)C(F)(F)F)cc1 : > 80%
CN(C)C(=O)c1ccc2c(ccc(=O)n2Cc2ccc(C(O)(C(F)(F)F)C(F)(F)F)cc2)c1 : > 80%

Give viability for each of the items listed below.
1. CNC(=O)c1ccc2c(ccc(=O)n2Cc2ccc(C(O)(C(F)(F)F)C(F)(F)F)cc2)c1
2. CNC(=O)c1ccc2c(c1)CCCN2Cc1ccc(C(O)(C(F)(F)F)C(F)(F)F)cc1
3. NC(=O)c1ccc2c(c1)CCC(=O)N2Cc1ccc(C(O)(C(F)(F)F)C(F)(F)F)cc1
4. CN(C)C(=O)c1ccc2c(c1)CCC(=O)N2Cc1ccc(C(O)(C(F)(F)F)C(F)(F)F)cc1
5. NC(=O)c1ccc2c(ccc(=O)n2Cc2ccc(C(O)(C(F)(F)F)C(F)(F)F)cc2)c1
6. CN(C)C(=O)c1ccc2c(c1)CCN2Cc1ccc(C(O)(C(F)(F)F)C(F)(F)F)cc1
7. CNC(=O)c1ccc2c(c1)CCC(=O)N2Cc1ccc(C(O)(C(F)(F)F)C(F)(F)F)cc1
8. CNC(=O)c1ccc2c(c1)CCN2Cc1ccc(C(O)(C(F)(F)F)C(F)(F)F)cc1

1: > 80%; 2: > 80%; 3: > 80%; 4: > 80%; 5: > 80%; 6: > 80%; 7: > 80%; 8: > 80%

For CN(C)C(=O)c1ccc2c(c1)CCCN2Cc1ccc(C(O)(C(F)(F)F)C(F)(F)F)cc1 , what is its reported viability? > 80%

====

Tested on: IL-22
Assay: TH17 cytokine inhibition as measured by ELISA (IL-22)
Assay type: cell-based
Details: 120 h; human CD4+ T cells differentiated to TH17 over 5 days, supernatant ELISA, vs DMSO
I'd be grateful if you could share measured IC50 for these entries.

Worked set:
CN(C)C(=O)c1ccc2c(ccc(=O)n2Cc2ccc(C(O)(C(F)(F)F)C(F)(F)F)cc2)c1 : > 10 µM
CNC(=O)c1ccc2c(c1)CCN2Cc1ccc(C(O)(C(F)(F)F)C(F)(F)F)cc1 : > 10 µM
CN(C)C(=O)c1ccc2c(c1)CCN2Cc1ccc(C(O)(C(F)(F)F)C(F)(F)F)cc1 : < 10 µM
CNC(=O)c1ccc2c(c1)CCCN2Cc1ccc(C(O)(C(F)(F)F)C(F)(F)F)cc1 : < 10 µM
NC(=O)c1ccc2c(c1)CCCN2Cc1ccc(C(O)(C(F)(F)F)C(F)(F)F)cc1 : < 10 µM

Give IC50 for each of the items listed below.
1. CN(C)C(=O)c1ccc2c(c1)CCCN2Cc1ccc(C(O)(C(F)(F)F)C(F)(F)F)cc1
2. NC(=O)c1ccc2c(ccc(=O)n2Cc2ccc(C(O)(C(F)(F)F)C(F)(F)F)cc2)c1
3. NC(=O)c1ccc2c(c1)CCN2Cc1ccc(C(O)(C(F)(F)F)C(F)(F)F)cc1
4. CNC(=O)c1ccc2c(ccc(=O)n2Cc2ccc(C(O)(C(F)(F)F)C(F)(F)F)cc2)c1

["< 10 µM", "> 10 µM", "< 10 µM", "> 10 µM"]
